# Kd values compiled below
tgt: human PDL1 protein (Octet assay) (human, UniProt Q9NZQ7 19-238)
Sequence (Q9NZQ7 19-238 limits assumed): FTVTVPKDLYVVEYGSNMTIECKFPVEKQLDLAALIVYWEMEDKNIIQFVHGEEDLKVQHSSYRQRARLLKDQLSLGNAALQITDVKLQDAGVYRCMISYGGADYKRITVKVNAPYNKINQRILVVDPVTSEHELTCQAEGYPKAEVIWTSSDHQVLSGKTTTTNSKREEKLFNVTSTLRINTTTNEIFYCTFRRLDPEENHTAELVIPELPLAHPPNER
run-description: Octet; antibody on sensor, PDL1 protein in solution
Reply numerically in nM, unit not repeated.

binder: Anti-PDL1/SIRPα bispecific antibody ES019-029 (bispecific antibody) chain 1: EVQVVESGGGLVQSGGSLKLSCAGSGFTESAGFMVWHRQVPGKERELVALIATPSGSTNYADSVKGRFTISRDNGKNTVYLQMNSLKPEDTAVYYCNIRGYWGQGTLVTVSS chain 2: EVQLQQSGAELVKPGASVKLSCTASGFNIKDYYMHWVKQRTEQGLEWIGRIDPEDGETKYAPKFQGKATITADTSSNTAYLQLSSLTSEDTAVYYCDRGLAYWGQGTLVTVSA chain 3: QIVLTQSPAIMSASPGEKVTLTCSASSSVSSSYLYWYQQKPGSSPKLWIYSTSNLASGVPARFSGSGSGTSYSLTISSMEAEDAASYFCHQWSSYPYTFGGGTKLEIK
outcome-measure: Kd
measured: 1.23
--
binder: Anti-PDL1/SIRPα bispecific antibody ES019-024 (bispecific antibody, not shown: a dimerising Fc or GST) light: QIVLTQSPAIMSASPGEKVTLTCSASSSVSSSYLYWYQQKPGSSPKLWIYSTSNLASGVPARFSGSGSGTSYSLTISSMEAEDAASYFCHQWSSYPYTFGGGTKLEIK heavy (part 1 of 2): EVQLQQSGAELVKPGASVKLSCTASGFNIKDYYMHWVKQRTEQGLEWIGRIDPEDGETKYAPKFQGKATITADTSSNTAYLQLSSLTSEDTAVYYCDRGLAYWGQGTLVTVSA heavy (part 2 of 2): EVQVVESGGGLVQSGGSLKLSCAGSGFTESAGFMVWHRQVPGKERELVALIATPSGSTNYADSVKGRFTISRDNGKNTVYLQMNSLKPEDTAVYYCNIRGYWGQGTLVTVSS
outcome-measure: Kd
measured: 6.56
--
binder: Anti-PDL1/SIRPα bispecific antibody ES019-079 (bispecific antibody, not shown: CL; linker and Fc; CH1) light: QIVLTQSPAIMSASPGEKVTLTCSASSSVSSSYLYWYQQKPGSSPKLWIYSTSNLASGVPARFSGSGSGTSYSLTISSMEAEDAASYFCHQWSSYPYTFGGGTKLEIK heavy (part 1 of 2): EVQLVESGGGLVQAGGSLRLSCAASGFTFSSHAMSWVRQAPGKGLEWVSDIDTSGTTTDYADSVKGRFTISRDNAKNTLYLQMNSLKPEDTAVYYCAKGPREATDIRSWGQGTQVTVSS heavy (part 2 of 2): GGGGSGGGGSGGGGSEVQLQQSGAELVKPGASVKLSCTASGFNIKDYYMHWVKQRTEQGLEWIGRIDPEDGETKYAPKFQGKATITADTSSNTAYLQLSSLTSEDTAVYYCDRGLAYWGQGTLVTVSA
outcome-measure: Kd
measured: 0.0485
--
binder: Anti-PDL1/SIRPα bispecific antibody ES019-025 (bispecific antibody, not shown: CL; linker; CH1-Fc) light: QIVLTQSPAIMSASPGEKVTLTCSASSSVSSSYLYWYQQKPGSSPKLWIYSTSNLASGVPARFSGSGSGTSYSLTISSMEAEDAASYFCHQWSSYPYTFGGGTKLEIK heavy (part 1 of 2): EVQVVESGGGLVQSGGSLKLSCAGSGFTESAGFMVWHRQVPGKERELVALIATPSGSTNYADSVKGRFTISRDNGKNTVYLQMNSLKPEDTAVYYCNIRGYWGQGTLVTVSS heavy (part 2 of 2): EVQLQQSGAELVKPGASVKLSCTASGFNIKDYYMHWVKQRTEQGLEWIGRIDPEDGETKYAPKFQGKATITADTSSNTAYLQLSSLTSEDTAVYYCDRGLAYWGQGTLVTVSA
outcome-measure: Kd
measured: 3.81

Incoming: Which measured Kd value corresponds to Anti-PDL1 antibody 570h3 (antibody, V domains shown, Humanized heavy chain antibody; also called Anti-PDL1, 570h3) VH: EVQLVESGGGLVQPGGSLRLSCAASGFTFSSHAMSWVRQAPGKGLEWVSDIDTSGTTTDYADSVKGRFTISRDNSKNTLYLQMNSLRAEDTAVYYCAKGPREATDIRSWGQGTTVTVSS ?
Outgoing: 0.198

Incoming: Which measured Kd value corresponds to Anti-PDL1 antibody C570 (antibody, V domains shown, Heavy chain antibody; also called Anti-PDL1, C570) VH: EVQLVESGGGLVQAGGSLRLSCAASGFTFSSHAMSWVRQAPGKGLEWVSDIDTSGTTTDYADSVKGRFTISRDNAKNTLYLQMNSLKPEDTAVYYCAKGPREATDIRSWGQGTQVTVSS ?
Outgoing: 0.374
